- assay-remarks: Inhibition of HCV BB7 NS5B polymerase after 15 mins
- Design: species or system Hepacivirus hominis
pIC50: −log10 of the molar value.
The recorded pIC50 of each item maps onto one of these classes: Low: < 6; Mid: ≥ 6 and < 8; High: ≥ 8

1) CCC[C@]1(CC(=O)O)OCCc2c1[nH]c1c(C)c(OCCn3cccn3)cc(C#N)c21 : High
2) CCCC1(CC(=O)O)OCCc2c1[nH]c1c(C)c(C(=O)N(C)C)cc(C#N)c21 (racemic) : Low
3) CCC[C@]1(CC(=O)O)OCCc2c1[nH]c1c(C)c(OC[C@H](C)n3cccn3)cc(C#N)c21 : High
4) CC[C@H](C)[C@]1(CC(=O)O)OCCc2c1[nH]c1c(C)c(OCCn3cccn3)cc(C#N)c21 : High
5) CCCNC(=O)c1cc(C#N)c2c3c([nH]c2c1C)C(CCC)(CC(=O)O)OCC3 (racemic) : Low
6) CCCC1(CC(=O)O)OCCc2c1[nH]c1c(C)c(OCC)cc(C#N)c21 (racemic) : Mid
7) CC[C@H](C)[C@]1(CC(=O)O)OCCc2c1[nH]c1c(C)c(OC[C@H](C)n3cccn3)cc(C#N)c21 : High
8) CCCC1(CC(=O)O)OCCc2c1[nH]c1c(C)c(OCc3cnccn3)cc(C#N)c21 (racemic) : Mid
9) CCCC1(CC(=O)O)OCCc2c1[nH]c1c(C)c(C(=O)NCCc3ncc[nH]3)cc(C#N)c21 (racemic) : Mid
10) CCCC1(CC(=O)O)OCCc2c1[nH]c1c(C)c(OCc3ccccn3)cc(C#N)c21 (racemic) : Mid
11) CCCC1(CC(=O)O)OCCc2c1[nH]c1c(C)c(OCCc3ccncc3)cc(C#N)c21 (racemic) : Mid
12) CCC[C@]1(CC(=O)O)OCCc2c1[nH]c1c(C)c(OCc3cc(C)n(C)n3)cc(C#N)c21 : Mid
13) CCCOc1cc(C#N)c2c3c([nH]c2c1C)C(CCC)(CC(=O)O)OCC3 (racemic) : Mid
